B1: HESX1 (parent)
chain: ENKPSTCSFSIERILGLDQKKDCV

# Variants of: B1
# PROTOCOL DETAILS: protein stability index of a GFP-peptide fusion (GPS, HEK-293T) (PSI 1-6); higher = more stable;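 note: lentivirally expressed fusions sorted by FACS into six bins by GFP to DsRed ratio, PSI derived from sequencing read proportions per bin multiplied by bin number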
# SETTINGS: c terminus: a fixed tail appended
MEASURED METRIC: protein stability index

> print(dat)
                              chain  measured.result
 1  ENKPSTCSFSIERILGLDQKDDCV [K21D]             3.16
 2  ENKPSTCSFSIERILGLDQKYDCV [K21Y]             1.67
 3   KNKPSTCSFSIERILGLDQKKDCV [E1K]             1.68
 4   ENKPSGCSFSIERILGLDQKKDCV [T6G]              3.5
 5  ENKPSTCSFSIERILTLDQKKDCV [G16T]             3.69
 6   EAKPSTCSFSIERILGLDQKKDCV [N2A]             2.15
 7  ENKPSTCSFSIERIVGLDQKKDCV [L15V]             4.16
 8  ENKPSTCSFSWERILGLDQKKDCV [I11W]             2.77
 9  ENKPSTCSFSIERILGLDQKKDIV [C23I]             2.91
10   ENKPMTCSFSIERILGLDQKKDCV [S5M]             2.75
11  ENKPSTCSFSIERILGLDQKKMCV [D22M]             1.77
12   ENKPSTGSFSIERILGLDQKKDCV [C7G]             3.87
13   ENKGSTCSFSIERILGLDQKKDCV [P4G]             2.84
14  ENKPSTCSFSIERRLGLDQKKDCV [I14R]             3.97
15   ENKPSTCNFSIERILGLDQKKDCV [S8N]             3.07
16   ENKRSTCSFSIERILGLDQKKDCV [P4R]             3.41
17  ENKPSTCSFAIERILGLDQKKDCV [S10A]             2.86
18  ENKPSTCSFIIERILGLDQKKDCV [S10I]             2.62
19   ENKMSTCSFSIERILGLDQKKDCV [P4M]             2.99
20  ENKPSTCSFSIERIYGLDQKKDCV [L15Y]             2.38
21  ENKPSTCSFSIERIEGLDQKKDCV [L15E]             4.11
